FYI, the data here is from the supplement of paper PMC10567573.

# Method Notes: protein stability index of a GFP-peptide fusion (GPS, HEK-293T) (PSI 1-6); higher = more stable;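 further: 24-mer peptide tiles fused after GFP, lentivirally expressed, FACS-sorted into six equal bins by GFP/DsRed ratio, decoded by Illumina sequencing, PSI is the read-weighted mean bin number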
# Test Parameters: treatment: MLN4924 1 uM, 8 h; c terminus: a fixed tail appended
Parameter protein stability index: see the listing below.
I'd appreciate a reply containing only the number, no unit.

Record excerpt, results attached:
[
  {
    "Item Sequence": "GHGMTPLKVAAESCKADVVELLLS [FEM1B]",
    "protein stability index": 2.47
  },
  {
    "Item Sequence": "KELCAMSEEQFRQRSPLGGDVLHA [SPDEF]",
    "protein stability index": 3.87
  },
  {
    "Item Sequence": "LLLEMLTFNPHKRISAFRALQHSY [CDK4]",
    "protein stability index": 2.41
  }
]

Ask | Which protein stability index is listed for KHHNLEGLRKRIATLFFHYIKTPL [IQUB] ?
Reply | 2.66

Ask | State the recorded protein stability index for this entry: RTLRNFINDEMQAKGIPQRAPPKR [PCMTD1]
Reply | 3.98

Ask | For SIAFRLRLASFDSSGKLICSRTTG [GMCL1] , what is its reported protein stability index?
Reply | 2.09

Ask | # query: protein stability index of entry KIIREIDFYREDEDEEEEEGGEGE [TRIM55]
Reply | 5.06
